These data points were gathered from ChEMBL document CHEMBL2203177.

Test: Hemolytic activity against human RBC assessed as hemoglobin leakage at 250 ug/ml
Assay type: ADME, cell-based, Erythrocyte
Conditions: human red blood cells, read-out: Activity
Peptide text beside a SMILES is read from it. * marks the point of attachment. Myristoyl = CCCCCCCCCCCCCC(=O)*; Lauroyl = CCCCCCCCCCCC(=O)*; Hexanoyl = CCCCCC(=O)*; Butyryl = CCCC(=O)*
TEST READOUT: hemolysis at 250 ug/ml

Worked cases, answers included:
MOLECULE | TEST READOUT | MEAS VALUE
CCCCCCCCCCCCCC(=O)NCCCC[C@H](N)C(=O)N[C@@H](CCCNC(=N)N)C(=O)N[C@@H](Cc1c[nH]c2ccccc12)C(=O)N[C@@H](CCCNC(=N)N)C(=O)N[C@@H](Cc1c[nH]c2ccccc12)C(=O)N[C@@H](CCCNC(=N)N)C(=O)N[C@@H](Cc1c[nH]c2ccccc12)C(N)=O (H-K(Myristoyl)RWRWRW-NH2) | hemolysis at 250 ug/ml | > 50%
CC(=O)NCCCC[C@H](N)C(=O)N[C@@H](CCCNC(=N)N)C(=O)N[C@@H](Cc1c[nH]c2ccccc12)C(=O)N[C@@H](CCCNC(=N)N)C(=O)N[C@@H](Cc1c[nH]c2ccccc12)C(=O)N[C@@H](CCCNC(=N)N)C(=O)N[C@@H](Cc1c[nH]c2ccccc12)C(N)=O (H-K(Ac)RWRWRW-NH2) | hemolysis at 250 ug/ml | < 10%
CC(=O)NCCCC[C@H](NC(=O)[C@H](Cc1c[nH]c2ccccc12)NC(=O)[C@H](CCCNC(=N)N)NC(=O)[C@H](Cc1c[nH]c2ccccc12)NC(=O)[C@H](CCCNC(=N)N)NC(=O)[C@H](Cc1c[nH]c2ccccc12)NC(=O)[C@@H](N)CCCNC(=N)N)C(N)=O (H-RWRWRWK(Ac)-NH2) | hemolysis at 250 ug/ml | < 10%
CCCCCC(=O)NCCCC[C@H](N)C(=O)N[C@@H](CCCNC(=N)N)C(=O)N[C@@H](Cc1c[nH]c2ccccc12)C(=O)N[C@@H](CCCNC(=N)N)C(=O)N[C@@H](Cc1c[nH]c2ccccc12)C(=O)N[C@@H](CCCNC(=N)N)C(=O)N[C@@H](Cc1c[nH]c2ccccc12)C(N)=O (H-K(Hexanoyl)RWRWRW-NH2) | hemolysis at 250 ug/ml | < 10%
CCCCCC(=O)NCCCC[C@H](NC(=O)[C@H](Cc1c[nH]c2ccccc12)NC(=O)[C@H](CCCNC(=N)N)NC(=O)[C@H](Cc1c[nH]c2ccccc12)NC(=O)[C@H](CCCNC(=N)N)NC(=O)[C@H](Cc1c[nH]c2ccccc12)NC(=O)[C@@H](N)CCCNC(=N)N)C(N)=O (H-RWRWRWK(Hexanoyl)-NH2) | hemolysis at 250 ug/ml | < 10%

In: # input molecule: CCCCCCCCCCCC(=O)NCCCC[C@H](NC(=O)[C@H](Cc1c[nH]c2ccccc12)NC(=O)[C@H](CCCNC(=N)N)NC(=O)[C@H](Cc1c[nH]c2ccccc12)NC(=O)[C@H](CCCNC(=N)N)NC(=O)[C@H](Cc1c[nH]c2ccccc12)NC(=O)[C@@H](N)CCCNC(=N)N)C(N)=O (H-RWRWRWK(Lauroyl)-NH2) ; wanted: its hemolysis at 250 ug/ml
Out: > 50%

In: # input molecule: CCCC(=O)NCCCC[C@H](N)C(=O)N[C@@H](CCCNC(=N)N)C(=O)N[C@@H](Cc1c[nH]c2ccccc12)C(=O)N[C@@H](CCCNC(=N)N)C(=O)N[C@@H](Cc1c[nH]c2ccccc12)C(=O)N[C@@H](CCCNC(=N)N)C(=O)N[C@@H](Cc1c[nH]c2ccccc12)C(N)=O (H-K(Butyryl)RWRWRW-NH2) ; wanted: its hemolysis at 250 ug/ml
Out: < 10%

----------
System: Bacillus subtilis
Assay: Antibacterial activity against Bacillus subtilis 168 DSM 402 assessed as growth inhibition after 18 hrs
Format: functional
Details: subsp. subtilis str. 168 DSM 402, 18 h
Peptide text beside a SMILES is read from it. * marks the point of attachment. Myristoyl = CCCCCCCCCCCCCC(=O)*; Lauroyl = CCCCCCCCCCCC(=O)*; Decanoyl = CCCCCCCCCC(=O)*; Octanoyl = CCCCCCCC(=O)*; Butyryl = CCCC(=O)*
Assign labels as follows, please: true (1) for MIC below 2 µM; false (0) for MIC equal to or exceeding 2 µM.

COMPOUND | LABEL CLASS
N=C(N)NCCC[C@H](NC(=O)[C@H](Cc1c[nH]c2ccccc12)NC(=O)[C@H](CCCNC(=N)N)NC(=O)[C@H](Cc1c[nH]c2ccccc12)NC(=O)[C@@H](N)CCCNC(=N)N)C(=O)N[C@@H](Cc1c[nH]c2ccccc12)C(=O)N[C@@H](CCCCN)C(N)=O (H-RWRWRWK-NH2) | false (0)
CCCCCCCC(=O)NCCCC[C@H](NC(=O)[C@H](Cc1c[nH]c2ccccc12)NC(=O)[C@H](CCCNC(=N)N)NC(=O)[C@H](Cc1c[nH]c2ccccc12)NC(=O)[C@H](CCCNC(=N)N)NC(=O)[C@H](Cc1c[nH]c2ccccc12)NC(=O)[C@@H](N)CCCNC(=N)N)C(N)=O (H-RWRWRWK(Octanoyl)-NH2) | true (1)
CC(=O)NCCCC[C@H](NC(=O)[C@H](Cc1c[nH]c2ccccc12)NC(=O)[C@H](CCCNC(=N)N)NC(=O)[C@H](Cc1c[nH]c2ccccc12)NC(=O)[C@H](CCCNC(=N)N)NC(=O)[C@H](Cc1c[nH]c2ccccc12)NC(=O)[C@@H](N)CCCNC(=N)N)C(N)=O (H-RWRWRWK(Ac)-NH2) | false (0)
CCCCCCCCCC(=O)NCCCC[C@H](NC(=O)[C@H](Cc1c[nH]c2ccccc12)NC(=O)[C@H](CCCNC(=N)N)NC(=O)[C@H](Cc1c[nH]c2ccccc12)NC(=O)[C@H](CCCNC(=N)N)NC(=O)[C@H](Cc1c[nH]c2ccccc12)NC(=O)[C@@H](N)CCCNC(=N)N)C(N)=O (H-RWRWRWK(Decanoyl)-NH2) | true (1)
CCCC(=O)NCCCC[C@H](NC(=O)[C@H](Cc1c[nH]c2ccccc12)NC(=O)[C@H](CCCNC(=N)N)NC(=O)[C@H](Cc1c[nH]c2ccccc12)NC(=O)[C@H](CCCNC(=N)N)NC(=O)[C@H](Cc1c[nH]c2ccccc12)NC(=O)[C@@H](N)CCCNC(=N)N)C(N)=O (H-RWRWRWK(Butyryl)-NH2) | false (0)
CCCCCCCCCCCC(=O)NCCCC[C@H](NC(=O)[C@H](Cc1c[nH]c2ccccc12)NC(=O)[C@H](CCCNC(=N)N)NC(=O)[C@H](Cc1c[nH]c2ccccc12)NC(=O)[C@H](CCCNC(=N)N)NC(=O)[C@H](Cc1c[nH]c2ccccc12)NC(=O)[C@@H](N)CCCNC(=N)N)C(N)=O (H-RWRWRWK(Lauroyl)-NH2) | true (1)
CCCCCCCC(=O)NCCCC[C@H](N)C(=O)N[C@@H](CCCNC(=N)N)C(=O)N[C@@H](Cc1c[nH]c2ccccc12)C(=O)N[C@@H](CCCNC(=N)N)C(=O)N[C@@H](Cc1c[nH]c2ccccc12)C(=O)N[C@@H](CCCNC(=N)N)C(=O)N[C@@H](Cc1c[nH]c2ccccc12)C(N)=O (H-K(Octanoyl)RWRWRW-NH2) | true (1)
CCCCCCCCCCCCCC(=O)NCCCC[C@H](N)C(=O)N[C@@H](CCCNC(=N)N)C(=O)N[C@@H](Cc1c[nH]c2ccccc12)C(=O)N[C@@H](CCCNC(=N)N)C(=O)N[C@@H](Cc1c[nH]c2ccccc12)C(=O)N[C@@H](CCCNC(=N)N)C(=O)N[C@@H](Cc1c[nH]c2ccccc12)C(N)=O (H-K(Myristoyl)RWRWRW-NH2) | false (0)

In: Does the reported MIC of CCCCCCCCCCCC(=O)NCCCC[C@H](N)C(=O)N[C@@H](CCCNC(=N)N)C(=O)N[C@@H](Cc1c[nH]c2ccccc12)C(=O)N[C@@H](CCCNC(=N)N)C(=O)N[C@@H](Cc1c[nH]c2ccccc12)C(=O)N[C@@H](CCCNC(=N)N)C(=O)N[C@@H](Cc1c[nH]c2ccccc12)C(N)=O (H-K(Lauroyl)RWRWRW-NH2) stay below 2 µM?
Out: false (0)

----------
Entries annotated with measured MIC
Test system: Pseudomonas aeruginosa
Test: Antibacterial activity against Pseudomonas aeruginosa DSM 50071 assessed as growth inhibition after 18 hrs
Format: functional
Conditions: DSM 50071, 18 h
Peptide text beside a SMILES is read from it. * marks the point of attachment. Lauroyl = CCCCCCCCCCCC(=O)*; Hexanoyl = CCCCCC(=O)*
A number alone suffices; assume µM.

COMPOUND | MEASUREMENT TARGET | TEST READOUT | QUANTITY UNIT | MEAS VALUE
CCCCCC(=O)NCCCC[C@H](N)C(=O)N[C@@H](CCCNC(=N)N)C(=O)N[C@@H](Cc1c[nH]c2ccccc12)C(=O)N[C@@H](CCCNC(=N)N)C(=O)N[C@@H](Cc1c[nH]c2ccccc12)C(=O)N[C@@H](CCCNC(=N)N)C(=O)N[C@@H](Cc1c[nH]c2ccccc12)C(N)=O (H-K(Hexanoyl)RWRWRW-NH2) | Pseudomonas aeruginosa | MIC | µM | 37

We now examine a further compound.
In: # input compound: CCCCCCCCCCCC(=O)NCCCC[C@H](NC(=O)[C@H](Cc1c[nH]c2ccccc12)NC(=O)[C@H](CCCNC(=N)N)NC(=O)[C@H](Cc1c[nH]c2ccccc12)NC(=O)[C@H](CCCNC(=N)N)NC(=O)[C@H](Cc1c[nH]c2ccccc12)NC(=O)[C@@H](N)CCCNC(=N)N)C(N)=O (H-RWRWRWK(Lauroyl)-NH2) ; wanted: its MIC
Out: 18
